Test system: MES-SA
Assay: relative viability vs DMSO control (72 h) (fraction); higher = more viable cells
Conditions: 0.00017 µM
measured parameter: relative viability

COc1cc2ncnc(Nc3ccc(F)c(Cl)c3)c2cc1OCCCN1CCOCC1 | 0.97
COC(=O)c1ccc2c(c1)NC(=O)/C2=C(\Nc1ccc(N(C)C(=O)CN2CCN(C)CC2)cc1)c1ccccc1 | 0.933
CNC(=O)c1cccc2cc(Oc3ccnc4cc(OCC5(N)CC5)c(OC)cc34)ccc12 | 0.983
O=C(/C=C\n1cnc(-c2cc(C(F)(F)F)cc(C(F)(F)F)c2)n1)NNc1cnccn1 [Selinexor] | 1.01
O=C1CCc2c(Oc3ccc4c(c3)[C@@H]3[C@H](O4)[C@H]3c3nc4cc(C(F)(F)F)ccc4[nH]3)ccnc2N1 | 0.948
CN(C)CCCOc1ccc(-c2ccc3ncc4c(c3c2)n(C2CCOCC2)c(=O)n4C)cn1 | 1.02
O=C(c1ccc(F)c(F)c1Nc1ccc(I)cc1F)N1CC(O)([C@@H]2CCCCN2)C1 | 0.934

----------
Tested on: SK-ES-1
Experiment: relative viability vs DMSO control (72 h) (fraction); higher = more viable cells
Settings: 3.333 µM
Field: class. Source value: relative viability. Ranges: Low: < 0.4; Mid: ≥ 0.4 and < 1; High: ≥ 1

COc1cc(Nc2ncc3c(n2)-c2ccc(Cl)cc2C(c2c(F)cccc2OC)=NC3)ccc1C(=O)O | Low
O=S(=O)(c1cccc2c(O)nccc12)N1CCCNCC1 [Hydroxyfasudil] | High
O=C(c1ccc(F)c(F)c1Nc1ccc(I)cc1F)N1CC(O)([C@@H]2CCCCN2)C1 | Mid
Cc1c2oc3c(C)ccc(C(=O)N[C@@H]4C(=O)N[C@H](C(C)C)C(=O)N5CCC[C@H]5C(=O)N(C)CC(=O)N(C)[C@@H](C(C)C)C(=O)O[C@@H]4C)c3nc-2c(C(=O)N[C@@H]2C(=O)N[C@H](C(C)C)C(=O)N3CCC[C@H]3C(=O)N(C)CC(=O)N(C)[C@@H](C(C)C)C(=O)O[C@@H]2C)c(N)c1=O | Low
CN(C)C(=O)c1cc2cnc(Nc3ccc(N4CCNCC4)cn3)nc2n1C1CCCC1 | Mid

----------
Tested on: SW1353
Experiment: relative viability vs DMSO control (72 h) (fraction); higher = more viable cells
Conditions: 1.111 µM
measured parameter: relative viability

Cc1cc(F)c(C(=O)Nc2cccc(-c3nncn3C(C)C)n2)cc1-n1cnc(C2CC2)c1 [Selonsertib] | 0.986
C#Cc1cccc(Nc2ncnc3cc4c(cc23)OCCOCCOCCO4)c1 [Icotinib] | 0.952
CN(C)CCCOc1ccc(-c2ccc3ncc4c(c3c2)n(C2CCOCC2)c(=O)n4C)cn1 [AZD-0156] | 0.883
CO[C@H]1C[C@@H]2CC[C@@H](C)[C@@](O)(O2)C(=O)C(=O)N2CCCC[C@H]2C(=O)O[C@H]([C@H](C)C[C@@H]2CC[C@@H](OC(=O)C(C)(CO)CO)[C@H](OC)C2)CC(=O)[C@H](C)/C=C(\C)[C@@H](O)[C@@H](OC)C(=O)[C@H](C)C[C@H](C)/C=C/C=C/C=C/1C [Temsirolimus] | 0.63
COC(=O)c1ccc2c(c1)NC(=O)/C2=C(\Nc1ccc(N(C)C(=O)CN2CCN(C)CC2)cc1)c1ccccc1 [Nintedanib] | 0.958
CS(=O)(=O)CCNCc1ccc(-c2ccc3ncnc(Nc4ccc(OCc5cccc(F)c5)c(Cl)c4)c3c2)o1 [Lapatinib] | 0.863
Cc1cc2c(F)c(Oc3ncnn4cc(OC[C@@H](C)OC(=O)[C@H](C)N)c(C)c34)ccc2[nH]1 [Brivanib_alaninate] | 0.97
O=C1CCc2c(Oc3ccc4c(c3)[C@@H]3[C@H](O4)[C@H]3c3nc4cc(C(F)(F)F)ccc4[nH]3)ccnc2N1 [Lifirafenib] | 1.03
CCOc1cc2ncc(C#N)c(Nc3ccc(OCc4ccccn4)c(Cl)c3)c2cc1NC(=O)/C=C/CN(C)C [Neratinib] | 0.525

----------
Tested on: KHOS-NP
Assay: standardised AUC of viability dose-response curve (72 h) (fraction (0-1)); higher = less growth inhibition (more resistant)
measured parameter: standardised AUC

CCc1nc(C(N)=O)c(Nc2ccc(N3CCC(N4CCN(C)CC4)CC3)c(OC)c2)nc1NC1CCOCC1 [GILTERITINIB] | 0.898
O=C(c1ccc(F)c(F)c1Nc1ccc(I)cc1F)N1CC(O)([C@@H]2CCCCN2)C1 [COBIMETINIB] | 0.657
Cc1c2oc3c(C)ccc(C(=O)N[C@@H]4C(=O)N[C@H](C(C)C)C(=O)N5CCC[C@H]5C(=O)N(C)CC(=O)N(C)[C@@H](C(C)C)C(=O)O[C@@H]4C)c3nc-2c(C(=O)N[C@@H]2C(=O)N[C@H](C(C)C)C(=O)N3CCC[C@H]3C(=O)N(C)CC(=O)N(C)[C@@H](C(C)C)C(=O)O[C@@H]2C)c(N)c1=O [DACTINOMYCIN] | 0.451
C=CC(=O)N1CCC(CNc2ncnc(N)c2-c2ccc(Oc3ccccc3)cc2)CC1 [EVOBRUTINIB] | 0.995
CNC(=O)c1c(C)oc2cc(Oc3ncnc4cc(OC)c(OC)cc34)ccc12 [FRUQUINTINIB] | 0.975
CC(=O)c1c(C)c2cnc(Nc3ccc(N4CCNCC4)cn3)nc2n(C2CCCC2)c1=O [PALBOCICLIB] | 0.96
O=S(=O)(c1cccc2c(O)nccc12)N1CCCNCC1 [HYDROXYFASUDIL] | 0.981

----------
Test system: HT1080
Test: relative viability vs DMSO control (72 h) (fraction); higher = more viable cells
Settings: 0.3704 µM
Field: label. Allowed values: class 1 (relative viability < 1) or class 0 (relative viability >= 1).

COc1cc2ncnc(Nc3ccc(F)c(Cl)c3)c2cc1OCCCN1CCOCC1 | class 0
CN(C)CCCOc1ccc(-c2ccc3ncc4c(c3c2)n(C2CCOCC2)c(=O)n4C)cn1 | class 0
COc1cc(Nc2ncc3c(n2)-c2ccc(Cl)cc2C(c2c(F)cccc2OC)=NC3)ccc1C(=O)O | class 1
Cc1cc2c(F)c(Oc3ncnn4cc(OC[C@@H](C)OC(=O)[C@H](C)N)c(C)c34)ccc2[nH]1 [Brivanib_alaninate] | class 0
Cc1[nH]c(/C=C2\C(=O)Nc3ccccc32)c(C)c1CCC(=O)O [Orantinib] | class 0
CC(=O)c1c(C)c2cnc(Nc3ccc(N4CCNCC4)cn3)nc2n(C2CCCC2)c1=O | class 0

----------
In this section, each of the compounds is paired with its reported relative viability.
Tested on: SK-LMS-1
Experiment: relative viability vs DMSO control (72 h) (fraction); higher = more viable cells
Conditions: 0.00457 µM
measured parameter: relative viability

CN(C)CCCOc1ccc(-c2ccc3ncc4c(c3c2)n(C2CCOCC2)c(=O)n4C)cn1 | 0.976
Cc1[nH]c(/C=C2\C(=O)Nc3ccccc32)c(C)c1CCC(=O)O [Orantinib] | 1.04
COc1cc(N2CCC(N3CCN(C)CC3)CC2)ccc1Nc1ncc(Cl)c(Nc2ccccc2P(C)(C)=O)n1 | 0.986
Cc1cc(F)c(C(=O)Nc2cccc(-c3nncn3C(C)C)n2)cc1-n1cnc(C2CC2)c1 | 1.09

----------
System: RD
Assay: relative viability vs DMSO control (72 h) (fraction); higher = more viable cells
Settings: 0.00051 µM
measured parameter: relative viability

C#Cc1cccc(Nc2ncnc3cc4c(cc23)OCCOCCOCCO4)c1 [Icotinib] | 1.1
CC(=O)c1c(C)c2cnc(Nc3ccc(N4CCNCC4)cn3)nc2n(C2CCCC2)c1=O [Palbociclib] | 1.08
CCS(=O)(=O)N1CC(CC#N)(n2cc(-c3ncnc4[nH]ccc34)cn2)C1 [Baricitinib] | 1.02
Cc1c2oc3c(C)ccc(C(=O)N[C@@H]4C(=O)N[C@H](C(C)C)C(=O)N5CCC[C@H]5C(=O)N(C)CC(=O)N(C)[C@@H](C(C)C)C(=O)O[C@@H]4C)c3nc-2c(C(=O)N[C@@H]2C(=O)N[C@H](C(C)C)C(=O)N3CCC[C@H]3C(=O)N(C)CC(=O)N(C)[C@@H](C(C)C)C(=O)O[C@@H]2C)c(N)c1=O [Dactinomycin] | 1.12
COC(=O)c1ccc2c(c1)NC(=O)/C2=C(\Nc1ccc(N(C)C(=O)CN2CCN(C)CC2)cc1)c1ccccc1 [Nintedanib] | 1.03
CNC(=O)c1c(C)oc2cc(Oc3ncnc4cc(OC)c(OC)cc34)ccc12 [Fruquintinib] | 1.09

----------
In this section, each of the molecules is paired with its reported relative viability.
System: KHOS-NP
Assay: relative viability vs DMSO control (72 h) (fraction); higher = more viable cells
Conditions: 0.00457 µM
measured parameter: relative viability

CNC(=O)c1c(C)oc2cc(Oc3ncnc4cc(OC)c(OC)cc34)ccc12 [Fruquintinib] | 1.09
Cc1cc2c(F)c(Oc3ncnn4cc(OC[C@@H](C)OC(=O)[C@H](C)N)c(C)c34)ccc2[nH]1 [Brivanib_alaninate] | 1.06
CS(=O)(=O)CCNCc1ccc(-c2ccc3ncnc(Nc4ccc(OCc5cccc(F)c5)c(Cl)c4)c3c2)o1 [Lapatinib] | 1.07
CC(=O)c1c(C)c2cnc(Nc3ccc(N4CCNCC4)cn3)nc2n(C2CCCC2)c1=O [Palbociclib] | 1.1
